Every entry's value here was drawn from PubChem BioAssay (EPA / NIEHS).

Read-out: Potassium channel subfamily K member 1 (KCNK1), KCNK1 (gene 3775)
Experiment: LTEA_HepaRG_KCNK1: Life Technologies and Expression Analysis (LTEA) Assay for Potassium channel subfamily K member 1 (KCNK1) using HepaRG (AID 2283511)
Settings: mRNA level, 48 h; actives raise or lower the signal
Method: LTEA_HepaRG is a cell based, multiplexed-readout assay that uses HepaRG, a human liver cell line, with measurements taken at 48 hours after chemical dosing on a 96-well plate.LTEA_HepaRG_KCNK1 is one of 102 assay component(s) measured in the LTEA HepaRG cell culture assay. It is a marker of Hyperplasia.Data from the assay component LTEA_HepaRG_KCNK1 was analyzed into 1 endpoint. […]
The source made the active and inactive calls. How the source made its calls: active means hit-call score of the fitted dose curve at least 0.9, where 1 is the maximum; inactive means score below 0.9.
Field 'call' accepts active, inactive

In this assay, the call recorded for `O=C(O)C(F)(F)C(F)(F)C(F)(F)C(F)(F)C(F)(F)C(F)(F)C(F)(F)C(F)(F)C(F)(F)C(F)(F)F` was what?
inactive

In this assay, the call recorded for `CN(C)N=O` was what?
inactive

In this assay, the call recorded for `C[C@@H]1C[C@@H]([C@H](O)CC2CC(=O)NC(=O)C2)C(=O)[C@@H](C)C1` was what?
active

In this assay, the call recorded for O=C1C2(Cl)C3(Cl)C4(Cl)C(Cl)(Cl)C5(Cl)C3(Cl)C1(Cl)C5(Cl)C24Cl (stereo not drawn) was what?
inactive

In this assay, the call recorded for `Oc1cccc2cccnc12` was what?
inactive

In this assay, the call recorded for `CC(C)(C)CC(C)(C)c1ccc(O)cc1` was what?
inactive

In this assay, the call recorded for `CCOP(=S)(OCC)SCSP(=S)(OCC)OCC` was what?
inactive

In this assay, the call recorded for `CCOP(=S)(OCC)Oc1nc(Cl)c(Cl)cc1Cl` was what?
inactive

In this assay, the call recorded for `CCC(C)(C)c1ccc(O)c(C(C)(C)CC)c1` was what?
inactive

In this assay, the call recorded for `COc1cc(-c2ccc(N)c(OC)c2)ccc1N` was what?
inactive

====

Target: human Adenosine A2a Receptor (AdoRA2a), ADORA2A (gene 135)
Assay: NVS_GPCR_hAdoRA2a: NovaScreen (NVS) G Protein-Coupled Receptor Assay for human Adenosine A2a Receptor (AdoRA2a) (AID 2283256)
Protocol: NVS_GPCR_hAdoRA2a is a biochemical, single-readout assay that uses extracted gene-proteins from HEK293 in a cell-free assay. Measurements were taken 1.5 hours after chemical dosing in a 96-well plate.NVS_GPCR_hAdoRA2a is one of one assay component(s) measured or calculated from the NVS_GPCR_hAdoRA2a assay. […] This assay endpoint, NVS_GPCR_hAdoRA2a, was analyzed in the positive analysis fitting direction relative to DMSO as the negative control and baseline of activity. […]
Results filed as inconclusive are left out. The source made the active and inactive calls. The calls were made as follows: active = hit-call score of the fitted dose curve at least 0.9, where 1 is the maximum; inconclusive = response in the unintended direction; inactive = score below 0.9.
Field 'call' accepts 1 (yes) for active, 0 (no) for inactive

Smiles input: CC(C)(C)CC(C)(C)c1ccc(O)cc1
Target under test: human Adenosine A2a Receptor (AdoRA2a), ADORA2A (gene 135)
Assigned label: 0 (no)
//
Smiles input: Oc1c(I)cc(I)cc1I
Target under test: human Adenosine A2a Receptor (AdoRA2a), ADORA2A (gene 135)
Assigned label: 0 (no)
//
Smiles input: CCNc1nc(NC(C)(C)C)nc(SC)n1
Target under test: human Adenosine A2a Receptor (AdoRA2a), ADORA2A (gene 135)
Assigned label: 1 (yes)
//
Smiles input: O=C(O)C(F)(F)C(F)(F)C(F)(F)C(F)(F)C(F)(F)C(F)(F)C(F)(F)C(F)(F)C(F)(F)C(F)(F)F
Target under test: human Adenosine A2a Receptor (AdoRA2a), ADORA2A (gene 135)
Assigned label: 1 (yes)

Next molecule, please.
In this assay, the call recorded for `COS(=O)(=O)c1ccc(C)cc1` was what?
0 (no)

====

Read-out: UDP glucuronosyltransferase (UGT1A1), UGT1A1 (gene 54658)
Assay: LTEA_HepaRG_UGT1A1: Life Technologies and Expression Analysis (LTEA) Assay for UDP glucuronosyltransferase (UGT1A1) using HepaRG (AID 2283538)
Conditions: mRNA level, 48 h; actives raise or lower the signal
Active and inactive are the calls of the source. How the source made its calls: active means hit-call score of the fitted dose curve at least 0.9, where 1 is the maximum; inactive means score below 0.9.
Observable: AC50

Answered cases to consult:
Compound: O=[N+]([O-])c1ccc(O)c([N+](=O)[O-])c1
AC50: 13.2 µM (active)

Compound: C=C(C)C(=O)[O][Sn]([CH2]CCC)([CH2]CCC)[CH2]CCC
AC50: 9.35 µM (active)

Compound: O=C(O)C(Cl)(Cl)Cl
AC50: inactive

Compound: O=C(Nc1ccc2[nH]ccc2c1)c1cc2cc(F)ccc2n1Cc1cccc(F)c1
AC50: 50 µM (active)

Compound: C[C@]12CCC(=O)C[C@@H]1CC[C@@H]1[C@@H]2CC[C@]2(C)[C@@H](O)CC[C@@H]12
AC50: inactive

Compound: O=C(O)C(F)(F)C(F)(F)C(F)(F)C(F)(F)C(F)(F)C(F)(F)C(F)(F)C(F)(F)C(F)(F)C(F)(F)F
AC50: 31 µM (active)

Compound: Cc1ccccc1N
AC50: inactive

Compound: CC(C)(c1ccccc1)c1ccc(O)c(C(C)(C)c2ccccc2)c1
AC50: 12.2 µM (active)

Dear colleague, could you send me AC50 for each of the items below? Thanks.
1. CCC(C)(C)c1ccc(O)c(C(C)(C)CC)c1
2. Cn1sc(Cl)cc1=O
3. CCOP(=S)(OCC)Oc1nc(Cl)c(Cl)cc1Cl
4. CN(C)N=O
5. CC(C)(C)CC(C)(C)c1ccc(O)cc1

["inactive", "inactive", "50 µM (active)", "inactive", "inactive"]

====

Read-out: Interleukin 6 (IL6), IL6 (gene 3569)
Experiment: LTEA_HepaRG_IL6: Life Technologies and Expression Analysis (LTEA) Assay for Interleukin 6 (IL6) using HepaRG (AID 2283509)
Details: mRNA level, 48 h; actives raise or lower the signal
Activity calls are given as the source filed them. The calls were made as follows: active = hit-call score of the fitted dose curve at least 0.9, where 1 is the maximum; inactive = score below 0.9.
Field 'call' accepts 1 (yes) for active, 0 (no) for inactive

Compound: CCOP(=S)(OCC)Oc1nc(Cl)c(Cl)cc1Cl
Assigned label: 0 (no)
//
Compound: CC12CC1(C)C(=O)N(c1cc(Cl)cc(Cl)c1)C2=O (configuration not stated)
Assigned label: 0 (no)
//
Compound: CCOP(=S)(OCC)SCSP(=S)(OCC)OCC
Assigned label: 0 (no)

In this assay, the call recorded for `CC(=O)[O][Hg][c]1ccccc1` was what?
1 (yes)

In this assay, the call recorded for `C=CC(=O)OCCCCCC(C)C` was what?
0 (no)

In this assay, the call recorded for `CC(C)(OO)c1ccccc1` was what?
0 (no)

In this assay, the call recorded for `O=C(Nc1ccc2[nH]ccc2c1)c1cc2cc(F)ccc2n1Cc1cccc(F)c1` was what?
1 (yes)

In this assay, the call recorded for `O=C(O)C(F)(F)C(F)(F)C(F)(F)C(F)(F)C(F)(F)C(F)(F)C(F)(F)C(F)(F)C(F)(F)C(F)(F)F` was what?
0 (no)

In this assay, the call recorded for `O=[N+]([O-])c1ccc(O)c([N+](=O)[O-])c1` was what?
1 (yes)

In this assay, the call recorded for `ClCC(Cl)CCl` was what?
0 (no)

In this assay, the call recorded for `CCN1CCC2(CC1)COc1cc3c(cc12)N(C(=O)c1ccc(-c2ccc(-c4nnc(C)o4)cc2C)cc1)CC3` was what?
1 (yes)

In this assay, the call recorded for `CCC(C)(C)c1ccc(O)c(C(C)(C)CC)c1` was what?
0 (no)

====

Read-out: Macrophage colony-stimulating factor (MCSF), CSF1 (gene 1435)
Assay: BSK_LPS_MCSF: BioMAP Diversity Plus: LPS Assay for Macrophage colony-stimulating factor (MCSF) Biomarker Activity (AID 2283083)
Details: primary human HUVEC with PBMC; actives raise or lower the signal
Method: BSK_LPS is a cell-based, multiplexed-readout assay that uses umbilical vein endothelium and peripheral blood mononuclear cells, a human vascular primary cell co-culture, with measurements taken at 24 hours after chemical dosing in a 96-well plate.BSK_LPS_MCSF is an assay component measured in the BSK_LPS assay. It measures M-CSF antibody related to regulation of gene expression using ELISA technology.Data from the assay component BSK_LPS_MCSF was analyzed into 1 assay endpoint. […]
The source made the active and inactive calls. The calls were made as follows: active = hit-call score of the fitted dose curve at least 0.9, where 1 is the maximum; inactive = score below 0.9.
Field 'call' accepts 1 = active, -1 = inactive

These recorded examples may help you get a feel for the data.
Molecule: Oc1c(I)cc(I)cc1I
Assigned label: 1

Molecule: O=C1C2(Cl)C3(Cl)C4(Cl)C(Cl)(Cl)C5(Cl)C3(Cl)C1(Cl)C5(Cl)C24Cl (configuration not stated)
Assigned label: 1

Molecule: CCOP(=S)(OCC)Oc1nc(Cl)c(Cl)cc1Cl
Assigned label: 1

Molecule: O=c1[nH]c(=O)[nH]c(=O)[nH]1
Assigned label: -1

Molecule: NC(=S)Nc1ccccc1
Assigned label: -1

Molecule: CCN1CCC2(CC1)COc1cc3c(cc12)N(C(=O)c1ccc(-c2ccc(-c4nnc(C)o4)cc2C)cc1)CC3
Assigned label: 1

In this assay, the call recorded for `C=CC(=O)OCCCCCC(C)C` was what?
-1
